Assignment: determine reported TGI for the given compounds.
# System: EKVX NSCLC
# Measurement Protocol: NCI tumour cell line growth inhibition, 48 h

# example entries with known answers
Compound	Property Label	Result
COc1cc2c3c(c1OCc1ccccc1)NCCC3NCC2 (stereo not drawn)	TGI	> 100 µM
CCN(CC)CCOCC1CCCN2CCCCC12 (stereo not drawn)	TGI	> 100 µM
COc1cccc(N2C(=O)[C@H]3[C@H]4CC(C(C)(C)C)CC[C@H]4c4c([nH]c5ccccc45)[C@H]3C2=O)c1 (stereo partly drawn)	TGI	40.6 µM
COc1cc(CCNc2nc3cc(N)cc(N)c3nc2-c2ccccc2)cc(OC)c1	TGI	3.4 µM
Nc1nc(Cl)nc2c1ncn2C1CCC(COP(=O)(O)OP(=O)(O)OP(=O)(O)O)O1 (stereo not drawn)	TGI	> 100 µM

Below are 6 compounds. Give each one its TGI.
1. CC(=O)[C@]1(C)[C@H](C)O[C@](C)(CO)[C@H]1O[Si](C)(C)c1ccccc1
2. CNC(=O)OCc1cc2ccncc2c2c1[nH]c1ccccc12
3. NC(=O)OCC(COc1ccc(Cl)cc1)OC(=O)c1cc([N+](=O)[O-])cc([N+](=O)[O-])c1 (stereo not drawn)
4. C=CCOCn1ccc(NC(=O)c2ccccc2)nc1=O
5. Nc1ncnc2c1c(C(=O)NO)cn2C1OC(CO)C(O)C1O (stereo not drawn)
6. CC#CC(=O)N[C@H]1CCCN(c2c(F)cc(C(N)=O)c3[nH]c(C)c(C)c23)C1

Ans:
["> 100 µM", "> 100 µM", "> 100 µM", "> 100 µM", "15.7 µM", "45.9 µM"]

List the reported TGI of each compound below.
1. N#Cc1nc(C2SCCCS2)oc1N
2. Cc1cccc2c1ccc1c3occ(C)c3c(=O)oc21
3. CCCCC/C=C\C/C=C/CCCCCCCCNC(=O)Nc1ccc([N+](=O)[O-])cc1
4. Cc1ccc(N=Nc2c(C)nn(C(=O)CC(=O)Nc3ccc(Cl)cc3)c2C)cc1C
5. COc1ccc(/C(Cl)=C(\CNc2ccccn2)c2ccccc2)cc1OC

Ans:
1. > 100 µM
2. > 100 µM
3. > 100 µM
4. > 100 µM
5. > 100 µM

Would you be so kind as to report TGI for each listed record?
1. COc1cc2c(cc1OC)C1(c3ccccc3)ON=C(c3ccccc3)N1CS2 (stereo not drawn)
2. Cc1cccc2c1NC(=O)C2(c1ccc(O)cc1)c1ccc(O)cc1
3. NN/C(=N\S(=O)(=O)c1cccc2nsnc12)Nc1ccc(Cl)cc1
4. CCN1C(=O)C(N=[N+]=[N-])(c2ccccc2)C(=O)c2ccccc21 (stereo not drawn)
5. CN1CCc2cc(O)c3cc2C1Cc1ccc(cc1)Oc1cc(ccc1O)CC1c2c(cc4c(c2O3)OCO4)CCN1C (stereo not drawn)

Ans:
["> 100 µM", "98.9 µM", "> 100 µM", "> 100 µM", "70.7 µM"]

Go through the list and state TGI for each entry.
1. O=[N+]([O-])c1cc(C(F)(F)F)ccc1S(=O)(=O)N[C@@H]1CCCC[C@H]1NS(=O)(=O)c1ccc(C(F)(F)F)cc1[N+](=O)[O-]
2. CC(C)NCCCCCNc1cc(O)cc2cccnc12

Ans:
1: 93.3 µM; 2: > 100 µM
